Kd reference
target under test: ROR1 (antigen of the KD determination and of the Octet dissociation measurement) (UniProt Q01973 30-403, limits assumed)
Sequence (Q01973 30-403 limits assumed): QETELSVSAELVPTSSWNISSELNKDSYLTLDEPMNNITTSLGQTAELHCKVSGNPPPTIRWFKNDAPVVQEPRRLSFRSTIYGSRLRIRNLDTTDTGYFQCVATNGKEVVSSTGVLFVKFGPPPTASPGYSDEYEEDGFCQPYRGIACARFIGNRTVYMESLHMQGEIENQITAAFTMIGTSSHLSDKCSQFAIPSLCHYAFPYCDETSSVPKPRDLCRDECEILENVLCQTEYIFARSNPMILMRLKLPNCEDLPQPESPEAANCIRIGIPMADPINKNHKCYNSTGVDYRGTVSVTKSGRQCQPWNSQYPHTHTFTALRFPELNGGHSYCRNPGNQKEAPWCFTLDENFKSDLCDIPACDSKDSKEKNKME
assay notes: method not stated (conventional procedures)
Field: numeric (nM). Do not append units.

binder | Kd (nM)
PR001418 (antibody, human IgG1, kappa, V domains shown, fully human IgG1, kappa) VH: QVQLVESGGGVVQPGRSLRLSCAASGFTFSSYGMHWVRQAPGKGLEWVAVIWYDGSDKDYADSVKGRFTISRDTSKNTLYLQMNSLRAEDTAVYYCAREQARSFDLWGRGTLVTVSS VL: DIVMTQSPSTLSASVGDRVTITCRASQTINNWLAWYQQKPGKAPKLLIYKASSLESGVPSRFSGSGSGTEFTLTISSLQPDDFATYYCQQYNSYSPMYTFGQGTKLEIKR | 1.45
PR001368 (antibody, V domains shown, fully human IgG1, kappa) VH: QVQLVESGGGVVQPGRSLRLSCAASGFTFSTYGMHWVRQAPGKGLEWVAVIWYDGSDTDYADSVKGRFTISRDTSKNTLYLQMNSLRAEDTAVYYCAREQARSFDLWGRGTLVTVSS VL: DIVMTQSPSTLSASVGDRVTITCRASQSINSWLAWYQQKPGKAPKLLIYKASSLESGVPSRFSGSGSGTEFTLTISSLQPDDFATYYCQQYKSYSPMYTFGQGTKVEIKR | 2.16

Attention now shifts to the item below.
**Q:** // lookup Kd for PR001358 (antibody, human IgG1, kappa, V domains shown, fully human IgG1, kappa) VH: QVQLVQSGGGVVQPGRSLRLSCAASGFTFSSYAMHWVRQAPGKGLEWVAIMWYDGSNTDYADSVKGRFTISRDTSKNTLFLQMNSLRAEDTAVYYCAREQARSFDLWGRGTLVTVSS VL: DIVMTQSPSTLSASVGDRVTITCRASQSINSWLAWYQQKPGKAPKLLIYKASNLESGVPSRFSGSGSGTEFTLTISSLQPDDFATYYCQQYKSYSPMYTFGQGTKVDIKR
**A:** 1.07

Origin of measurements: patent US20240010721A1
